Data origin, for the record: patent US12551482B2

test system: 8505C; assay: Cancer cell line profiling, Genomics of Drug Sensitivity Project; conditions: Homo sapiens, read-out: CD532 EC50 (uM)
Property Measured: EC50

Recorded EC50 of O=C(Nc1ccc(Nc2nccc(Nc3cc(C4CCCC4)[nH]n3)n2)cc1)Nc1cccc(C(F)(F)F)c1 [CD532] , please.
0.662 µM

----------
tested on: SK-MEL-3; assay: Cancer cell line profiling, Genomics of Drug Sensitivity Project; details: Homo sapiens, SK-MEL3, read-out: CD532 EC50 (uM)
Property Measured: EC50

So what's the measured EC50 for this one? O=C(Nc1ccc(Nc2nccc(Nc3cc(C4CCCC4)[nH]n3)n2)cc1)Nc1cccc(C(F)(F)F)c1 [CD532]
0.567 µM

----------
test system: BICR 78; experiment: Cancer cell line profiling, Genomics of Drug Sensitivity Project; conditions: read-out: CD532 EC50 (uM)
Property Measured: EC50 (µM)
Express it in µM; write the number only.

For BICR 78, provide EC50 of O=C(Nc1ccc(Nc2nccc(Nc3cc(C4CCCC4)[nH]n3)n2)cc1)Nc1cccc(C(F)(F)F)c1 [CD532] please.
12.2

----------
test system: RF-48; assay: Cancer cell line profiling, Genomics of Drug Sensitivity Project; conditions: RF48, read-out: CD532 EC50 (uM)
Property Measured: EC50 (µM)
Just the number in µM, nothing appended.

Recorded EC50 for O=C(Nc1ccc(Nc2nccc(Nc3cc(C4CCCC4)[nH]n3)n2)cc1)Nc1cccc(C(F)(F)F)c1 [CD532] , please?
0.903

----------
system: NB13; assay: Cancer cell line profiling, Genomics of Drug Sensitivity Project; conditions: read-out: CD532 EC50 (uM)
Property Measured: EC50 (µM)
Respond numerically; units are µM and should not be typed.

I'm curious: which EC50 was measured for O=C(Nc1ccc(Nc2nccc(Nc3cc(C4CCCC4)[nH]n3)n2)cc1)Nc1cccc(C(F)(F)F)c1 [CD532] tested on NB13?
1.02

----------
tested on: IGR-1; experiment: Cancer cell line profiling, Genomics of Drug Sensitivity Project; details: Homo sapiens, IGR-1, read-out: CD532 EC50 (uM)
Property Measured: EC50
Report field: quantity (unit follows the number).

I have this molecule here, O=C(Nc1ccc(Nc2nccc(Nc3cc(C4CCCC4)[nH]n3)n2)cc1)Nc1cccc(C(F)(F)F)c1 [CD532] , and I need its recorded EC50.
0.27 µM

----------
system: RPMI 2650; test: Cancer cell line profiling, Genomics of Drug Sensitivity Project; conditions: Homo sapiens, RPMI-2650, read-out: CD532 EC50 (uM)
Property Measured: EC50 (µM)
Numbers only here, please. The scale is µM.

Look up EC50 with RPMI 2650 for this compound: O=C(Nc1ccc(Nc2nccc(Nc3cc(C4CCCC4)[nH]n3)n2)cc1)Nc1cccc(C(F)(F)F)c1
0.412

----------
experiment: Pharmacokinetics of CD532 in mice; format: in vivo; details: mouse, serum, ip, 20 mg/kg, intraperitoneal injection
Property Measured: half-life

// half-life lookup, key: O=C(Nc1ccc(Nc2nccc(Nc3cc(C4CCCC4)[nH]n3)n2)cc1)Nc1cccc(C(F)(F)F)c1 [CD532]
~1.5 h

----------
tested on: ML-1; experiment: Cancer cell line profiling, Genomics of Drug Sensitivity Project; conditions: ML1, read-out: CD532 EC50 (uM)
Property Measured: EC50 (µM)
Numeric only. Scale: µM

Suppose we examine the compound O=C(Nc1ccc(Nc2nccc(Nc3cc(C4CCCC4)[nH]n3)n2)cc1)Nc1cccc(C(F)(F)F)c1 ; what EC50 value has been reported?
1.32

----------
test system: SK-MEL-30; assay: Cancer cell line profiling, Genomics of Drug Sensitivity Project; conditions: Homo sapiens, SK-MEL-30, read-out: CD532 EC50 (uM)
Property Measured: EC50 (µM)
Answer in µM, number only, no unit symbol.

Name the reported EC50 value associated with the compound O=C(Nc1ccc(Nc2nccc(Nc3cc(C4CCCC4)[nH]n3)n2)cc1)Nc1cccc(C(F)(F)F)c1 [CD532]
0.323

----------
tested on: RPMI-7951; test: Cancer cell line profiling, Genomics of Drug Sensitivity Project; conditions: Homo sapiens, RPMI-7951, read-out: CD532 EC50 (uM), RPMI-7951 cell line, Skin
Property Measured: EC50

Give its EC50 value. Item: O=C(Nc1ccc(Nc2nccc(Nc3cc(C4CCCC4)[nH]n3)n2)cc1)Nc1cccc(C(F)(F)F)c1
1.06 µM

----------
system: WM-115; assay: Cancer cell line profiling, Genomics of Drug Sensitivity Project; settings: Homo sapiens, WM-115, read-out: CD532 EC50 (uM)
Property Measured: EC50 (µM)
Hi! Could you send only the number? It should be in µM, unit omitted.

For the compound shown here, O=C(Nc1ccc(Nc2nccc(Nc3cc(C4CCCC4)[nH]n3)n2)cc1)Nc1cccc(C(F)(F)F)c1 [CD532] , give the reported EC50.
0.412

----------
tested on: DOK; assay: Cancer cell line profiling, Genomics of Drug Sensitivity Project; conditions: read-out: CD532 EC50 (uM)
Property Measured: EC50

EC50 lookup needed for O=C(Nc1ccc(Nc2nccc(Nc3cc(C4CCCC4)[nH]n3)n2)cc1)Nc1cccc(C(F)(F)F)c1 , thanks.
0.512 µM

----------
system: MKN28; test: Cancer cell line profiling, Genomics of Drug Sensitivity Project; conditions: Homo sapiens, MKN-28, read-out: CD532 EC50 (uM)
Property Measured: EC50
Provide the measurement as a number trailed by its unit.

Entry O=C(Nc1ccc(Nc2nccc(Nc3cc(C4CCCC4)[nH]n3)n2)cc1)Nc1cccc(C(F)(F)F)c1 has what EC50?
10.1 µM

----------
Recorded EC50 values for a group of compounds are listed next.
system: Kelly MYCN-amplified neuroblastoma cells; assay: Viability at 72 hrs, CyQUANT assay; assay type: cell-based; details: FIG. 1F, read-out: cellular EC50 at 72 hrs
Kindly answer with a numeric value in nM, unit omitted.

COc1cc(Nc2ncc3c(n2)-c2ccc(Cl)cc2C(c2c(F)cccc2OC)=NC3)ccc1C(=O)O [MLN8237]    33.9

Note: attention shifts to another entry.
What EC50 value was documented for this compound, O=C(Nc1ccc(Nc2nccc(Nc3cc(C4CCCC4)[nH]n3)n2)cc1)Nc1cccc(C(F)(F)F)c1 [CD532] ?
147

----------
tested on: LB2518-MEL; experiment: Cancer cell line profiling, Genomics of Drug Sensitivity Project; conditions: read-out: CD532 EC50; LB2518-MEL cell line, Skin
Property Measured: pEC50
When answering, recall that pEC50 equals minus log10 of the concentration in mol/L, and write that number alone.

Which pEC50 value is on record for O=C(Nc1ccc(Nc2nccc(Nc3cc(C4CCCC4)[nH]n3)n2)cc1)Nc1cccc(C(F)(F)F)c1 ?
6.15

----------
tested on: NB5; test: Cancer cell line profiling, Genomics of Drug Sensitivity Project; conditions: read-out: CD532 EC50 (uM)
Property Measured: EC50
Reply with a number, then the unit it belongs to.

Return EC50 measured with NB5 given this molecule: O=C(Nc1ccc(Nc2nccc(Nc3cc(C4CCCC4)[nH]n3)n2)cc1)Nc1cccc(C(F)(F)F)c1
0.761 µM

----------
system: BICR 10; assay: Cancer cell line profiling, Genomics of Drug Sensitivity Project; details: read-out: CD532 EC50 (uM)
Property Measured: EC50 (µM)
Hi! Could you send only the number? It should be in µM, unit omitted.

Could you share which EC50 value was measured for O=C(Nc1ccc(Nc2nccc(Nc3cc(C4CCCC4)[nH]n3)n2)cc1)Nc1cccc(C(F)(F)F)c1 ?
4.27

----------
system: Hs, 766T; test: Cancer cell line profiling, Genomics of Drug Sensitivity Project; settings: Hs766T, read-out: CD532 EC50 (uM)
Property Measured: EC50 (µM)
Please give a number only; it is taken to be in µM.

Given O=C(Nc1ccc(Nc2nccc(Nc3cc(C4CCCC4)[nH]n3)n2)cc1)Nc1cccc(C(F)(F)F)c1 [CD532] , state its recorded EC50.
2.45

----------
system: M-14; assay: Cancer cell line profiling, Genomics of Drug Sensitivity Project; conditions: Homo sapiens, M14, read-out: CD532 EC50 (uM)
Property Measured: EC50 (µM)
// return numeric value only (unit: µM, not printed)

Quick one: EC50 for O=C(Nc1ccc(Nc2nccc(Nc3cc(C4CCCC4)[nH]n3)n2)cc1)Nc1cccc(C(F)(F)F)c1 ?
0.972
